assay_text: Solubility test, equilibrium method, UV-visible spectrophotometry
Type: physicochemical
run_parameters: saline or isotonic, thermodynamic from solid; normal saline; read-out: Solubility in Normal Saline (NS)
Returns one of satisfied or not satisfied; satisfied when solubility is >= 1000 µg/mL.

Prompt line: Item CCc1c2c(nc3ccc(OC(=O)NCCCCCOCc4cn(CCO[C@H]5O[C@@H](CO)[C@H](O)[C@@H](O)[C@@H]5O)nn4)cc13)-c1cc3c(c(=O)n1C2)COC(=O)[C@]3(O)CC with solubility of 1000 µg/mL or above?
Response line: not satisfied

* * *

assay_text: Solubility test, equilibrium method, UV-visible spectrophotometry
Assay type: physicochemical
run_parameters: aqueous with cosolvent or surfactant or cyclodextrin, thermodynamic from solid; 0.1% aqueous solution of Tween-80; read-out: Solubility in 0.1% Tween-80
measured_endpoint: solubility (µg/mL)
Expressed in µg/mL, but write only the number.

Given item CCc1c2c(nc3ccc(OC(=O)NCCCCCOCc4cn(CCO[C@H]5O[C@@H](CO)[C@H](O)[C@@H](O)[C@@H]5O)nn4)cc13)-c1cc3c(c(=O)n1C2)COC(=O)[C@]3(O)CC [Compound 88] , the value recorded as its solubility is 1350

Given item CCc1c2c(nc3ccc(OC(=O)NCCCCCOCc4cn([C@H]5O[C@@H](CO)[C@H](O)[C@@H](O)[C@@H]5O)nn4)cc13)-c1cc3c(c(=O)n1C2)COC(=O)[C@]3(O)CC [Compound 87] , the value recorded as its solubility is 1110

Lab book: solubility of CCc1c2c(nc3ccc(OC(=O)NCCOCCOCc4cn([C@H]5O[C@@H](CO)[C@H](O)[C@@H](O)[C@@H]5O)nn4)cc13)-c1cc3c(c(=O)n1C2)COC(=O)[C@]3(O)CC [Compound 73] noted as 1260

* * *

assay_text: Solubility test, equilibrium method, UV-visible spectrophotometry
Type: physicochemical
run_parameters: normal saline, saline or isotonic, thermodynamic from solid; read-out: Solubility in Normal Saline (NS)
Procedure: The solubility test is carried out by equilibrium method. […] An appropriate amount of the compound is weighed and dissolved in 1 mL of methanol solution to prepare a control solution with a certain concentration (C0). The concentration of test solution is calculated according to the following formula: Cx=(Ax/A0)C0, wherein Cx is concentration of test solution, Ax is absorbance of test solution, C0 is concentration of control solution, and A0 is absorbance of control solution.
Where a name gives a salt, the structure may show the parent alone.
measured_endpoint: solubility

Lab book: solubility of CCc1c2c(nc3ccc(OC(=O)N4CCC(N5CCCCC5)CC4)cc13)-c1cc3c(c(=O)n1C2)COC(=O)[C@]3(O)CC [CPT-11, Irinotecan hydrochloride, reference compound] noted as 1220 µg/mL

* * *

assay_text: Solubility test, equilibrium method, UV-visible spectrophotometry
Type: physicochemical
run_parameters: pH 7.4, aqueous buffer, thermodynamic from solid
measured_endpoint: log10(solubility) (log10 of the value in µg/mL)
The common logarithm of solubility in µg/mL is what is listed.

INSERT INTO results (compound, reading) VALUES
  ('CCc1c2c(nc3ccc(OC(=O)OCCOCCOCCOCc4cn(CCO[C@H]5O[C@@H](CO)[C@H](O)[C@@H](O)[C@@H]5O)nn4)cc13)-c1cc3c(c(=O)n1C2)COC(=O)[C@]3(O)CC [Compound 58]', 3.20),
  ('CCc1c2c(nc3ccc(OC(=O)OCCOCCOCCOCCOCc4cn([C@H]5O[C@@H](CO)[C@H](O)[C@@H](O)[C@@H]5O)nn4)cc13)-c1cc3c(c(=O)n1C2)COC(=O)[C@]3(O)CC [Compound 42]', 1.93),
  ('CCc1c2c(nc3ccc(OC(=O)OCCOCc4cn([C@H]5O[C@@H](CO)[C@H](O)[C@@H](O)[C@@H]5O)nn4)cc13)-c1cc3c(c(=O)n1C2)COC(=O)[C@]3(O)CC [Compound 37]', 1.74);

Entry CCc1c2c(nc3ccc(OC(=O)OCCOCCOCc4cn([C@H]5O[C@@H](CO)[C@H](O)[C@@H](O)[C@@H]5O)nn4)cc13)-c1cc3c(c(=O)n1C2)COC(=O)[C@]3(O)CC [Compound 47] ; log10(solubility) = 1.78

// log10(solubility) lookup, compound = CCc1c2c(nc3ccc(OC(=O)OCCOCCOCc4cn(CCO[C@H]5O[C@@H](CO)[C@H](O)[C@@H](O)[C@@H]5O)nn4)cc13)-c1cc3c(c(=O)n1C2)COC(=O)[C@]3(O)CC [Compound 57] , result: 2.56

Note to self: log10(solubility) recorded for CCc1c2c(nc3ccc(OC(=O)OCCOCc4cn(CCO[C@H]5O[C@@H](CO)[C@H](O)[C@@H](O)[C@@H]5O)nn4)cc13)-c1cc3c(c(=O)n1C2)COC(=O)[C@]3(O)CC [Compound 56] was 1.93

The reported value for CCc1c2c(nc3ccc(OC(=O)OCCOCCOCCOCCOCc4cn(CCO[C@H]5O[C@@H](CO)[C@H](O)[C@@H](O)[C@@H]5O)nn4)cc13)-c1cc3c(c(=O)n1C2)COC(=O)[C@]3(O)CC [Compound 59] in terms of log10(solubility) is 2.99

// field: log10(solubility); key: CCc1c2c(nc3ccc(OC(=O)OCCOCCOCCOCc4cn([C@H]5O[C@@H](CO)[C@H](O)[C@@H](O)[C@@H]5O)nn4)cc13)-c1cc3c(c(=O)n1C2)COC(=O)[C@]3(O)CC [Compound 52] ; value = 1.93
